# Test system: ATP;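 further: ATP exposure 15 min at 22 °C before imaging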
# PROTOCOL_DESCRIPTION: switch fluorescence ratio, 500 uM ATP over buffer (Cy3 cluster intensity, sum of 5 cycles each) (fold (ratio)); higher = stronger signal-on switching upon ATP binding; sequences stand for … in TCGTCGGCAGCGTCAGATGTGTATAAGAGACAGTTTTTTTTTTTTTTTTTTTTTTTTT…TC
# CONDITION_LABEL: aptamer strand: ATP DNA aptamer (quencher-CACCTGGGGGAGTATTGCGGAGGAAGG + anchor), 100 nM annealed; ATP concentration: 500 uM
Property: switch fluorescence ratio; scope: individual sequences
Output: the number by itself.

GGGCATAGGA :: 1.03
AGGTTTTTCT :: 0.987

Continue with the next sequence.
input: Sample GTATTGGTTG — what was its switch fluorescence ratio?
output: 0.983

---

# System: ATP;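 further: ATP exposure 15 min at 22 °C before imaging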
# PROTOCOL_DESCRIPTION: switch fluorescence ratio, 500 uM ATP over buffer (Cy3 cluster intensity, sum of 5 cycles each) (fold (ratio)); higher = stronger signal-on switching upon ATP binding; sequences stand for … in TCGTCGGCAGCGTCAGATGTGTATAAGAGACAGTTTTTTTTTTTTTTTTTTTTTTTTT…TC
# CONDITION_LABEL: aptamer strand: ATP DNA aptamer (quencher-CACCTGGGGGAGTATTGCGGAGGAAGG + anchor), 100 nM annealed; ATP concentration: 500 uM
Property: switch fluorescence ratio; scope: individual sequences
Output: the number by itself.

Examples with answers:
TTAGTAGATT :: 0.991
CCTTCACCGT :: 2.21
TCGAGGGTAG :: 1.02
TAGTGGGTTT :: 1.01
GCATTAGGGT :: 1.02

input: Sample GATAGATGTT — what was its switch fluorescence ratio?
output: 0.979

input: Sample GGGGGAATGC — what was its switch fluorescence ratio?
output: 1.07

input: Sample CAAAGGGGTG — what was its switch fluorescence ratio?
output: 1.03

---

Property: switch fluorescence ratio; scope: individual sequences
# Test system: ATP;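 further: ATP exposure 15 min at 22 °C before imaging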
# PROTOCOL_DESCRIPTION: switch fluorescence ratio, 500 uM ATP over buffer (Cy3 cluster intensity, sum of 5 cycles each) (fold (ratio)); higher = stronger signal-on switching upon ATP binding; sequences stand for … in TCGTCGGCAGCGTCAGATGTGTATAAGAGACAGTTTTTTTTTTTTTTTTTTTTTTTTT…TC
# CONDITION_LABEL: aptamer strand: ATP DNA aptamer (quencher-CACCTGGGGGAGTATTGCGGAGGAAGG + anchor), 100 nM annealed; ATP concentration: 500 uM

AGTTCCAAAA :: 1.07

input: Sample AGTTATGAGT — what was its switch fluorescence ratio?
output: 1.01

input: Sample TTTGATGGGG — what was its switch fluorescence ratio?
output: 0.988

input: Sample ACGATTTTTA — what was its switch fluorescence ratio?
output: 1

input: Sample ATTGTTATTG — what was its switch fluorescence ratio?
output: 0.967

input: Sample AAAAAAGCAG — what was its switch fluorescence ratio?
output: 1.02

input: Sample GGCGTTTTTG — what was its switch fluorescence ratio?
output: 1.02

input: Sample ATGCGCCCTG — what was its switch fluorescence ratio?
output: 1

input: Sample GATGCTATTT — what was its switch fluorescence ratio?
output: 1

input: Sample AGGGGAGAGG — what was its switch fluorescence ratio?
output: 0.992

input: Sample TGTCTTTTTA — what was its switch fluorescence ratio?
output: 0.995

input: Sample TACCTTTTAA — what was its switch fluorescence ratio?
output: 1.02

input: Sample TTGCGTTTCC — what was its switch fluorescence ratio?
output: 1.19

input: Sample TGCAAAGAGC — what was its switch fluorescence ratio?
output: 0.982

input: Sample GGAATGTGGG — what was its switch fluorescence ratio?
output: 0.984

input: Sample ACTGGGGGAA — what was its switch fluorescence ratio?
output: 0.97

input: Sample TAGATGAGAG — what was its switch fluorescence ratio?
output: 0.969
